target: T1, bacterially produced human IL-6 (human, UniProt P05231 30-212); assay: SPR; periplasmic fraction; against parental 29B11
T1 construct: also called bactIL-6; prokaryotic IL-6
measured-endpoint: fold improvement KD (fold)

[[record]]
binder = "Fab 47C2 (Fab, V domains shown, VL-shuffled Fab of 29B11, periplasmic fraction; also called 47C2 (R4)) VH: EVQLVESGGGLVQPGGSLRLSCAASGFTFSSYAMSWVRQAPGKGLEWVSRISSGGISTYYADSVKGRFTISRDNAKNTLYLQMNSLKPEDTAVYYCVRYAWGVQWAFDFWGQGTQVTVSS VL: LSYDLTQPPSVSGSPGKTVTISCAGTSSDVGYGNYVSWYQQLPGMAPKILIYDVNKRASGIADRFSGSKSGNTASLTISGLQSEDEADYYCASYRRGETIVFGGGTHLTVLG"
measured_endpoint = "fold improvement KD"
output_unit = "fold"
result_number = 1.86

[[record]]
binder = "Fab 55E2 (Fab, V domains shown, VL-shuffled Fab of 29B11, periplasmic fraction; also called 55E2b) VH: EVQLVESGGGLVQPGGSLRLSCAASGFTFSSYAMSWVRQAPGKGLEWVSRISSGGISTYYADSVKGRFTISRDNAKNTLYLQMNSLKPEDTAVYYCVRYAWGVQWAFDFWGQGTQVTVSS VL: AQSVLTQPPSVSGSPGKTVTISCAGTSSDVGYGNYVSWYQQLPGMAPKLLIYDVNKRASGIADRFSGSKFANTASLTISGLQSEDEADYYCASYKRGDNAVFGGGTKLTVLG"
measured_endpoint = "fold improvement KD"
output_unit = "fold"
result_number = 3.82

[[record]]
binder = "Fab 55C1 (Fab, V domains shown, VL-shuffled Fab of 29B11, periplasmic fraction; also called 55C1a) VH: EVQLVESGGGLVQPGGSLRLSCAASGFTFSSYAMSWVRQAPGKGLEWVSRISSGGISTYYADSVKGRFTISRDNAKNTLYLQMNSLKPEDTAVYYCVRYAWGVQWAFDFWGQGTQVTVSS VL: LNFMLTQPPSVSGSPGKTVTISCAGTSSDVGYGNYVSWYQQLPGTAPKLLIYNVNKRASGITDRFSGSKSGNTASLTISGLQSEDEADYYCASYRTGDNAAFGGGTKLTVLG"
measured_endpoint = "fold improvement KD"
output_unit = "fold"
result_number = 3.97

[[record]]
binder = "Fab 48C10 (Fab, V domains shown, VL-shuffled Fab of 29B11, periplasmic fraction) VH: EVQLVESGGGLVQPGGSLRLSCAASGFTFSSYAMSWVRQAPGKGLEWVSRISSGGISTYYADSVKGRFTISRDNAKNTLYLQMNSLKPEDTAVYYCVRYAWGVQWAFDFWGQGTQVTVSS VL: AQSVLTQPPSVSGSPGQTVTISCAGTSEDVGYGNYVSWYQQLPGMAPKLLIYDVNKRASGIADRFSGSKSGNTASLTISGLQSEDEADYYCASYRRTIDNIFGGGTHLTVLG"
measured_endpoint = "fold improvement KD"
output_unit = "fold"
result_number = 0.75

[[record]]
binder = "Fab 55H1 (Fab, V domains shown, VL-shuffled Fab of 29B11, periplasmic fraction; also called 55H1c) VH: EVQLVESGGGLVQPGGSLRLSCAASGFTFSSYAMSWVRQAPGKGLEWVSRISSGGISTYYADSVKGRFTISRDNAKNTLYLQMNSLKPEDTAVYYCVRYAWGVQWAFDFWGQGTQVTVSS VL: AQSVVTQPPSVSGSPGKTVTISCAGTSSDVGYGNYVSWYQQLPGMAPKLLIYDVSKRASGIADRFSGSKSGNTASLTISGLQSEDEADYVCASYRRGGTAVFGGGTHLTVLG"
measured_endpoint = "fold improvement KD"
output_unit = "fold"
result_number = 5.26


Where do the numbers come from? From patent US20220073604A1.
